Test system: HCT-116 colon
Assay: NCI-60 one-dose screen, 48 h
Conditions: 10 µM unless noted
The panel holds about 83,000 compounds, 20% with a hit somewhere; the sample as a whole holds those more often. The source made the active and inactive calls. The calls were made as follows: active = growth percent below 10; inactive = the rest.
The reply should name one outcome from y (active), n (inactive)

Answered examples (3):
>>> df
                                   compound  classification
0        Cc1c2cnccc2c(C)c2c1c1cc(CO)ccc1n2C               y
1  O=C(O)c1cn(C2CC2)c2cc(N3CCN(C(=O)N/N=C/c4cccc5ccccc45)CC3)c(F)cc2c1=O               n
2  Cc1cc(NCCCNc2ccnc3cc(Cl)ccc23)nc(Nc2ccc(C(=O)N3CCCCC3)cc2)n1               y

[Q] Hi, sorry to bother you, what did the test record for `CCCOC(=O)Nc1nc2ccc(SCC)cc2s1` ?
[A] n

[Q] Hi, sorry to bother you, what did the test record for `C/C(=N\Nc1ccccc1)c1ccc(NC2=CC(=O)c3ccccc3C2=O)cc1` ?
[A] n

[Q] Hi, sorry to bother you, what did the test record for `Cc1sc2nc(NCCN)[nH]c(=O)c2c1C` ?
[A] n

----------
Test system: SK-OV-3 ovarian
Experiment: NCI-60 one-dose screen, 48 h (100 = growth as untreated, 0 = no growth, -100 = all killed)
Conditions: 10 µM unless noted
This is part of a sample that, as a whole, favours compounds with a hit. Of some 83,000 tested, about 20% had one in any assay. Activity calls are given as the source filed them. The calls were made as follows: active = growth percent below 10; inactive = the rest.
observation type: growth

Below, each entry is followed by its recorded growth result.
                                   compound  experimental_target    value_measured
0  Cc1ccc2nc(-c3ccc(C(=O)N/N=C/c4ccc([N+](=O)[O-])cc4)cc3)[nH]c2c1      SK-OV-3 ovarian   109% (inactive)
1  COc1ccc(-c2cc(-c3cccnc3)nc3sc4c(N)c(C(C)=O)c(-c5ccccc5)nc4c23)cc1OC      SK-OV-3 ovarian   110% (inactive)
2  CNC(=O)Nc1ccc(-c2ccc3ncnc(Nc4cccc(Cl)c4)c3c2)cc1      SK-OV-3 ovarian  19.3% (inactive)
3     COc1cc(Cc2cc(OC)c(O)c(OC)c2)cc(OC)c1O      SK-OV-3 ovarian  98.3% (inactive)
4  N#Cc1c(-c2ccc(Br)cc2)nc2c(N=Nc3ccc(S(N)(=O)=O)cc3)c(N)nn2c1N      SK-OV-3 ovarian  82.8% (inactive)

[Q] Look up and state reported growth for `CCCCn1c(NC(C)=O)c(S(=O)(=O)c2ccccc2)c2nc3ccccc3nc21`
[A] 98.5% (inactive)

[Q] Look up and state reported growth for `C=C1C(=O)O[C@H]2[C@H]1CC/C(CNC(=O)Cc1c[nH]c3ccccc13)=C\CC[C@@]1(C)O[C@@H]21`
[A] 106% (inactive)

[Q] Look up and state reported growth for `Cc1ccc2cnc(N)c(C#Cc3cc(C(=O)Nc4ccc(CN5CCN(C)CC5)c(C(F)(F)F)c4)cnc3C)c2c1`
[A] 50.5% (inactive)

[Q] Look up and state reported growth for COc1ccc(C(O)c2cc3c(N)c(C(=O)Nc4cccc5ccccc45)sc3nc2C)cc1 (stereo not drawn)
[A] 18.3% (inactive)

[Q] Look up and state reported growth for `Cn1cc(-c2csc(-c3cn(CCCN4CCOCC4)c4ccc(F)cc34)n2)c2cccnc21`
[A] 80% (inactive)

[Q] Look up and state reported growth for `C=C(C)[C@@H]1CC[C@]2(C)[C@H](C=CC3=C4C[C@@](C)(CO)CC[C@]4(C)CC[C@]32C)[C@@]1(C)CCCN`
[A] 8.02% (active)

[Q] Look up and state reported growth for `CC1(C)CC[C@]2(CO)CC[C@]3(C)[C@](O)([C@H](O)C[C@@H]4[C@@]5(C)CCCNC(C)(C)[C@@H]5CC[C@]43C)[C@@H]2C1`
[A] 98.2% (inactive)

[Q] Look up and state reported growth for O=C(CN1C(=O)S/C(=C\C(Cl)=C\c2ccccc2)C1=O)NC1CCS(=O)(=O)C1 (stereo not drawn)
[A] 106% (inactive)
